Can you tell me Kb for the items I'm about to list?
Target: β1 -adrenergic receptors (Rattus norvegicus, UniProt P18090)
Construct: from tissue; host or cells: isolated rat auricles (atria)
Sequence (P18090 whole entry): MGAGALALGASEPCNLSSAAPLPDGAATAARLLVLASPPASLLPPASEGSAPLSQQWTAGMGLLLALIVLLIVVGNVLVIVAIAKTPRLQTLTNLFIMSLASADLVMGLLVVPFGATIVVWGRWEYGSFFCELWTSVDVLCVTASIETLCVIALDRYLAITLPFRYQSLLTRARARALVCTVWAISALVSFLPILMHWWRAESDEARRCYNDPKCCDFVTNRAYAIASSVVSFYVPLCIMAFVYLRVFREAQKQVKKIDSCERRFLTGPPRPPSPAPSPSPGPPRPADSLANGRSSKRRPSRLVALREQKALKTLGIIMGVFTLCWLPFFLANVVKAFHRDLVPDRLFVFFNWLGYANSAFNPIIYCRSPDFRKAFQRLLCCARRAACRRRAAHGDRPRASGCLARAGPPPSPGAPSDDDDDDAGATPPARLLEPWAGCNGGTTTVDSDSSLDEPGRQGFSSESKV
Experiment: Studies on isolated organs: antagonism of isoprenaline-induced tachycardia and increase in contractile force in isolated rat auricles (pA2)
Parameters: species or system rats
Details: isoprenaline tachycardia, 31° C., read-out: pA2, effect on chronotropism (converted)
Field format: number, assumed nM, no unit text.

Inquiry: # query: Kb of entry CC(C)NCC(O)COc1ccc(OCCCC2CC2)cc1 (centres unmarked) [SL D.311]
Reply text: 91.2

Inquiry: # query: Kb of entry CC(C)NCC(O)COc1ccc(OCCOCC2CC2)cc1 (centres unmarked) [SL D.177]
Reply text: 8.13

Inquiry: # query: Kb of entry CC(C)NCC(O)COc1ccc(OCCSCC2CC2)cc1 (centres unmarked) [SL D.299]
Reply text: 17.4

Inquiry: # query: Kb of entry CC(C)(C)NCC(O)COc1ccc(OCC2CC2)cc1 (centres unmarked) [SL D.231]
Reply text: 28.8

Inquiry: # query: Kb of entry CC(C)NCC(O)COc1ccc(CCS(=O)(=O)CC2CCC2)cc1 (centres unmarked) [SL E.060]
Reply text: 11.7

Where do these numbers come from? They come from patent US4252984A.
